protocol: Terbinafine hydrochloride content in the nail tip after oral administration of a terbinafine hydrochloride tablet
Assay type: in vivo
experimental_parameters: human, nail (tip), po, Comparative Example 1: tablet orally once a day for 4 weeks; average of No. 1-6
Structures can show the parent of a compound that is named as a salt.
value_kind: concentration at 4 weeks (ng/g)
Value expressed in ng/g; do not type the unit.

Data request: I am curious: what concentration at 4 weeks value has been reported for CN(C/C=C/C#CC(C)(C)C)Cc1cccc2ccccc12 [terbinafine hydrochloride] ?
Data returned: 380

* * *

protocol: Terbinafine hydrochloride content in the nail tip after the dome-shaped applicator was bonded to the nail
Type: in vivo
experimental_parameters: nail (tip), topical, 0.15 mL of 1% solution, Example 3: third-type applicator, 1% solution, 1.3 atm, two days; average of No. 1-6
Structures can show the parent of a compound that is named as a salt.
value_kind: concentration at 2 days (ng/g)
Value expressed in ng/g; do not type the unit.

Data request: I am curious: what concentration at 2 days value has been reported for CN(C/C=C/C#CC(C)(C)C)Cc1cccc2ccccc12 [terbinafine hydrochloride] ?
Data returned: 63900

* * *

protocol: Terbinafine hydrochloride content in the nail tip after the dome-shaped applicator was bonded to the nail
Type: in vivo
experimental_parameters: nail (tip), topical, 0.15 mL of 1% solution, Example 1: first-type applicator, 1% solution, 1.0 atm, two days; average of No. 1-6
Experimental: The dome-shaped applicator of the first type as shown in FIG. 2 (inside volume: 0.15 mL) was used. A commercially available instantaneous adhesive agent (cyanoacrylate-based adhesive) was applied to the flange of the applicator for bonding. The flange was then hermetically bonded to a surface of a nail. […] A part of the tip of the nail was cut and measured for the concentration of the terbinafine hydrochloride. […]
Counter-ions that a name gives are not always drawn.
value_kind: concentration at 2 days (ng/g)
Value expressed in ng/g; do not type the unit.

Data request: I am curious: what concentration at 2 days value has been reported for CN(C/C=C/C#CC(C)(C)C)Cc1cccc2ccccc12 [terbinafine hydrochloride] ?
Data returned: 43800
